The measured values listed here are drawn from paper PMC5557574.

Protocol Summary: Pharmacokinetics in septic shock patients, two-compartment population pharmacokinetic model
Type: in vivo, human
Applied Conditions: human, in vivo, intravenous, 2.5 ng/kg.min, N=17, modelled, mean (SD), SD, read-out: Steady state volume
Positions of bridges follow the written chain, without caps; N, C: chain ends. Non-standard residues stand in square brackets, D forms with d. Residues, ends and D or L forms follow the SMILES beside them. Orn(iPr) = CC(C)NCCC[C@H](N)C(=O)O; Aad = N[C@@H](CCCC(=O)O)C(=O)O
Measured Attribute: Vd (L)
Field format: number, assumed L, no unit text.

According to the records, this compound CC[C@H](C)[C@@H]1NC(=O)[C@H](Cc2ccccc2)NC(=O)[C@@H](N)CSSC[C@@H](C(=O)N2CCC[C@H]2C(=O)N[C@@H](CCCNC(C)C)C(=O)NCC(N)=O)NC(=O)[C@H](CC(N)=O)NC(=O)[C@H](CCCC(N)=O)NC1=O [selepressin] (H-CFI[Aad](NH2)NCP[Orn(iPr)]G-NH2; disulfide 1-6) displays Vd of 31.2
